Source: patent US20090264485A1

For each record, write down the corresponding melting point.

Some solved entries appear below for comparison.
INSERT INTO results (compound, measurement_name, value_measured) VALUES
  ('Cn1nccc1CC[S+]([O-])Cc1ccc(OCc2coc(/C=C/c3ccc(OC(F)(F)F)cc3)n2)cc1 (stereo not drawn)', 'melting point', '144 to 146 °C'),
  ('Cc1cc(OCc2coc(/C=C/c3ccc(Cl)cc3)n2)ccc1C[S+]([O-])CCc1ccnn1C (stereo not drawn)', 'melting point', '169 to 171 °C'),
  ('Cn1nccc1CCS(=O)(=O)Cc1ccc(OCc2coc(/C=C/c3ccc(C(F)(F)F)cc3)n2)cc1', 'melting point', '204 °C'),
  ('Cn1nccc1CC[S+]([O-])Cc1ccc(OCc2coc(/C=C/c3ccc(C(F)(F)F)cc3)n2)cc1 (stereo not drawn)', 'melting point', '172 to 174 °C'),
  ('Cc1cc(OCc2coc(/C=C/c3ccc(C(F)(F)F)cc3)n2)ccc1C[S+]([O-])CCc1ccnn1C (stereo not drawn)', 'melting point', '161 to 162 °C'),
  ('Cc1cc(OCc2coc(/C=C/c3ccc(OC(F)(F)F)cc3)n2)ccc1C[S+]([O-])CCc1ccnn1C (stereo not drawn)', 'melting point', '138 to 139 °C');

Items follow; give melting point for each.
1. Cc1cc(OCc2coc(/C=C/c3ccc(Cl)cc3)n2)ccc1COCCc1ccnn1C
2. Cc1cc(OCc2coc(/C=C/c3ccc(C(F)(F)F)cc3)n2)ccc1COCCc1ccnn1C

1: 106 to 107 °C; 2: 96 to 97 °C

The compound listed as Cc1cc(OCc2coc(/C=C/c3ccc(OC(F)(F)F)cc3)n2)ccc1COCCc1ccnn1C has a reported melting point of 77 to 78 °C
